Let's go through some pKi measurements on Prostacyclin receptor (Mus musculus, UniProt P43252) together.
Sequence (P43252 whole entry): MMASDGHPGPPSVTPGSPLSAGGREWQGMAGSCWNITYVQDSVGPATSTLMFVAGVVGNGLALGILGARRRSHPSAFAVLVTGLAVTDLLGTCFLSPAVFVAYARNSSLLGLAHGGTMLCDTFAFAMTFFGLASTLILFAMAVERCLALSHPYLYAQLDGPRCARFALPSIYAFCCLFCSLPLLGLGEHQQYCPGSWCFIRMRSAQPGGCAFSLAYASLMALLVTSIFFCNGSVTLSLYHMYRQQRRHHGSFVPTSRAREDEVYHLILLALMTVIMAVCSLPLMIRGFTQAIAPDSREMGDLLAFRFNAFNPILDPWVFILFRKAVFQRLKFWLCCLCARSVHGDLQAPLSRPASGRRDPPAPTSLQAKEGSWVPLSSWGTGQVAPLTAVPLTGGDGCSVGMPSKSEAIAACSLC
pKi: −log10 of the molar value.
assay.metric: pKi

I. CCCCC[C@H](O)/C=C/[C@@H]1[C@H]2C/C(=C\CCCC(=O)O)C[C@H]2C[C@H]1O
II. CCCCCC(O)C=CC1C(O)CC2OC(CCCCC(=O)O)CC21 (stereo not given)
III. O=C(O)CCC/C=C\C[C@H]1C(=O)C[C@@H](O)[C@@H]1/C=C/[C@@H](O)CCc1ccccc1 [17-PHENYL TRINOR PROSTAGLANDIN E2]
IV. CCCCC[C@H](O)/C=C/C1[C@H](O)CC(=O)[C@H]1CCCCCCC(=O)O (stereo not given in full) [8-ISO PROSTAGLANDIN E1]
V. CCCCC[C@H](O)CC[C@H]1[C@H](O)CC(=O)[C@@H]1CCCCCCC(=O)O
Returns the items ordered by pKi, from maximum to minimum. # list labels per requested ordering
I, V, IV, III, II

Origin of the recorded values: BindingDB's records for doi:10.1016/0006-2952(81)90220-3
